ASSAY_TARGET: T1, human MASP-2cf CCP1-CCP2-SP (human, UniProt O00187 298-686, limits assumed)
T1 construct: domain: CCP1-CCP2-SP; also called human MASP-2 catalytic fragment
T1 sequence (O00187 298-686 limits assumed): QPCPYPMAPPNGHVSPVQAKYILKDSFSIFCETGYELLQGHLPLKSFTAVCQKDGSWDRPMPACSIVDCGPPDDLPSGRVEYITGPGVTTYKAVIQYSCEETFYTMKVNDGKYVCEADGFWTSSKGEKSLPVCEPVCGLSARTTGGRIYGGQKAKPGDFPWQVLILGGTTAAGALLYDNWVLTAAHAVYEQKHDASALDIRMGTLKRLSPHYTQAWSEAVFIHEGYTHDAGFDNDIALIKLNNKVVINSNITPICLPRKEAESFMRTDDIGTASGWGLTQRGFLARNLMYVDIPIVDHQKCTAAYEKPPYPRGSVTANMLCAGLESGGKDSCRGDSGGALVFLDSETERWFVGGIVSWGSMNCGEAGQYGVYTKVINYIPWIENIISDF
ASSAY_TEXT: SPR, target immobilised
Where no end group is shown, it is not given here.
API: label(entry) gives condition met if the entry's Kd is strictly smaller than 0.2 nM; on equality or larger values it gives condition not met.

// known answers, use as guide
EVO21 (designed binder, not fully specified; ends and bridges not checked, Modified TFPI-D2 Kunitz domain; made as m1) KPDFCFLENDPGPCRALKRRYFYNNQTKQCERFGYGGCLGNMNNFVTLEECKNICEDG = condition met
EVO223 (designed binder, Modified TFPI-D2 Kunitz domain; made as m1) KPDFCFLENDPGPCRAAAVRYFYNNQTKQCERFYYGGCLGNMNNFVTLEECKNICEDG = condition met
EVO21a (designed binder, not fully specified; cysteine pairing not given here, Modified TFPI-D2 Kunitz domain; made as m1) KPDFCFLENDPGPCRAVKRRYFYNNQTKQCERFGYGGCLGNMNNFVTLEECKNICEDG = condition not met
EVO2b (designed binder, not fully specified; cysteine pairing not given here, Modified TFPI-D2 Kunitz domain; made as m1) KPDFCFLEEDPGPCRAVKRRYFYNNQTKQCERFGYGGCLGNMNNFETLEECKNICEDG = condition not met
EVO216 (designed binder, not fully specified; cysteine pairing not given here, Modified TFPI-D2 Kunitz domain; made as m1) KPDFCFLENDPGWCRAAKLRYFYNNQTKQCERFGYGGCLGNMNNFVTLEECKNICEDG = condition not met
EVO213 (designed binder, Modified TFPI-D2 Kunitz domain; made as m1) KPDFCFLENDPGPCRAAKRRYFYNNQTKQCERFGYGGCLGNMNNFVTLEECKNICEDG = condition not met

Record EVO211 (designed binder, not fully specified; ends and bridges not checked, Modified TFPI-D2 Kunitz domain; made as m1) KPDFCFLENDPGWCRALKRRYFYNNQTKQCERFGYGGCLGNMNNFVTLEECKNICEDG : is its Kd strictly below 0.2 nM?
condition met

Field: below-cutoff. Rule: recorded Kd strictly less than 0.2 nM. Subject: EVO221 (designed binder, not fully specified; cysteine pairing not given here, Modified TFPI-D2 Kunitz domain; made as m1) KPDFCFLENDPGVCRAAAVRYFYNNQTKQCERFYYGGCLGNMNNFVTLEECKNICEDG
condition met

Confirm or reject: Kd of EVO22b (designed binder, not fully specified; cysteine pairing not given here, Modified TFPI-D2 Kunitz domain; made as m1) KPDFCFLENDPGPCRALARRYFYNNQTKQCERFYYGGCLGNMNNFVTLEECKNICEDG lies strictly below 0.2 nM
condition not met
